Details: 358.15 K; 101.33 kPa; Liquid; Vibrating tube method
ENDPOINT NAME: mass density (kg/m3)
Numeric answer only, unit kg/m3 assumed.

Sample answers from the record:
[
  {
    "MOLECULE": "CC(=O)[O-].CCCC[N+]1(C)CCCC1 [1-butyl-1-methylpyrrolidinium acetate]",
    "UNITS OF MEASURE": "kg/m3",
    "RESULT": 986.3
  },
  {
    "MOLECULE": "CC(=O)[O-].CCCCn1cc[n+](C)c1 [1-butyl-3-methylimidazolium acetate]",
    "UNITS OF MEASURE": "kg/m3",
    "RESULT": 1016.2
  },
  {
    "MOLECULE": "CC(=O)[O-].CCn1cc[nH+]c1 [1-ethyl-1H-imidazolium acetate]",
    "UNITS OF MEASURE": "kg/m3",
    "RESULT": 982.8
  }
]

Now look at this one.
Query :: GET /values?readout=mass density&item= CC(=O)O.CCN(C)C [N,N-dimethylethanamine acetate]
Result :: 969.1
